System: HOP-62
assay procedure: NCI tumour cell line growth inhibition, 48 h
Activity calls are given as the source filed them. No stated cut-off is given here; in the data, active = GI50 up to about 1.1 µM and inactive = higher.
Choose one outcome from this list and give only that: t for active, f for inactive

See these solved cases before continuing.
QUERY: Record lookup: outcome of this test for Fc1ccc(C2SCc3nc4ccccc4n32)cc1F (stereo unspecified) ?
RESULT: f

QUERY: Record lookup: outcome of this test for COc1ccc(CC2NCCc3cc(OC)c(OC)cc32)cc1 (stereo unspecified) ?
RESULT: f

QUERY: Record lookup: outcome of this test for CCN(CC)CCOc1ccc(C(O)(Cc2ccc(OC)cc2)c2ccccc2)cc1 (stereo unspecified) ?
RESULT: f

Next up:
QUERY: Record lookup: outcome of this test for COc1cnnc2c(C)c(-c3ccccc3)nn12 ?
RESULT: f

----------
Parameter: GI50. Scope: all listed entries.
System: HOP-92
assay procedure: NCI tumour cell line growth inhibition, 48 h
Activity calls are given as the source filed them. Rule as the data show it: active = GI50 up to about 1.1 µM and inactive = higher.

QUERY: Entry CCCNC1CC(n2cc(C)c(=O)[nH]c2=O)OC1CO (stereo not given) : reported GI50 = ?
RESULT: > 100 µM (inactive)

QUERY: Entry Nc1ncnc2c1N=CN(Oc1ccccc1)N2 : reported GI50 = ?
RESULT: > 100 µM (inactive)

----------
Test system: SNB-75
assay procedure: NCI tumour cell line growth inhibition, 48 h
Activity calls are given as the source filed them. No stated cut-off is given here; in the data, active = GI50 up to about 1.1 µM and inactive = higher.
assay endpoint: GI50

See these solved cases before continuing.
QUERY: Entry CN(C)C(=O)Oc1c(Br)cc(Br)cc1C(=O)OCc1ccccc1 : reported GI50 = ?
RESULT: 32 µM (inactive)

QUERY: Entry COC(=O)c1ccccc1CC(Cc1ccccc1)C(=O)OC (stereo not given) : reported GI50 = ?
RESULT: 20 µM (inactive)

QUERY: Entry COc1cccc(C2c3cc4c(cc3OC(NNS(=O)(=O)c3ccc(C)cc3)C2C)OCO4)c1O (stereo not given) : reported GI50 = ?
RESULT: 11.2 µM (inactive)

QUERY: Entry N=C1N(S(=O)(=O)c2ccccc2)[C@@H](Cc2ccccc2)[C@H](c2ccccc2)C1(c1ccccc1)c1ccccc1 : reported GI50 = ?
RESULT: > 100 µM (inactive)

New cases:
QUERY: Entry O=C(CC1(O)C(=O)Nc2ccc([N+](=O)[O-])cc21)c1ccncc1 (stereo not given) : reported GI50 = ?
RESULT: 26.1 µM (inactive)

----------
Tested on: UACC-257
assay procedure: NCI tumour cell line growth inhibition, 48 h
Calls of active or inactive are those of the source. Cut-off read from the data, not from the text of the source: active = GI50 up to about 1.1 µM and inactive = higher.
assay endpoint: GI50

QUERY: Entry O=C(O)CCc1nc(-c2ccccc2)c(-c2ccccc2)o1 [OXAPROZIN] : reported GI50 = ?
RESULT: > 100 µM (inactive)

New cases:
QUERY: Entry COc1ccc(C2CC(c3cc4c(C)c(C(=O)c5ccccc5)oc4cc3O)=Nc3ccccc3S2)cc1OC (stereo unspecified) : reported GI50 = ?
RESULT: > 100 µM (inactive)

QUERY: Entry O=C1/C(=C/c2cccc([N+](=O)[O-])c2)N=C(c2ccccc2)N1c1nc2c(Cl)cc(Cl)cc2s1 : reported GI50 = ?
RESULT: 30.1 µM (inactive)

QUERY: Entry COc1cc([C@@H]2c3cc4c(cc3[C@H](O)[C@H]3COC(=O)[C@H]23)OCO4)cc(OC)c1OC [PODOFILOX] : reported GI50 = ?
RESULT: 29.9 µM (inactive)

QUERY: Entry [N-]=[N+]=NCC(O)Cn1cnc2c(NC(=O)c3ccccc3)ncnc21 (stereo unspecified) : reported GI50 = ?
RESULT: > 100 µM (inactive)

QUERY: Entry CC1=NNC(=O)C1C1C=C(c2c[nH]c3ccccc23)OC1=O (stereo unspecified) : reported GI50 = ?
RESULT: > 100 µM (inactive)

----------
Parameter: GI50. Scope: all listed entries.
Tested on: NCI-H23
assay procedure: NCI tumour cell line growth inhibition, 48 h
The source made the active and inactive calls. Cut-off read from the data, not from the text of the source: active = GI50 up to about 1.1 µM and inactive = higher.

See these solved cases before continuing.
QUERY: Entry O=C1c2cccc(O)c2C(=O)c2c(O)cccc21 : reported GI50 = ?
RESULT: > 100 µM (inactive)

QUERY: Entry Cc1ccc(-c2cnc(NC3OC(COC(=O)c4ccccc4)C(OC(=O)c4ccccc4)C(OC(=O)c4ccccc4)C3OC(=O)c3ccccc3)s2)cc1 (stereo unspecified) : reported GI50 = ?
RESULT: > 100 µM (inactive)

QUERY: Entry NCCCN(CCCN(C(=O)Nc1ccccc1)c1ccccc1)C(=O)Nc1ccccc1 : reported GI50 = ?
RESULT: 27.2 µM (inactive)

QUERY: Entry c1ccc2c(OCCSCCCCCCCCCCSCCOc3cccc4ccccc34)cccc2c1 : reported GI50 = ?
RESULT: > 100 µM (inactive)

QUERY: Entry CCOc1ccc(NC(=S)N/C=C(/C(C)=O)C(=O)Nc2ccccc2C)cc1 : reported GI50 = ?
RESULT: > 100 µM (inactive)

New cases:
QUERY: Entry O=C(CSSCC(=O)OCCS(=O)(=O)Nc1ccc(Br)cc1)OCCS(=O)(=O)Nc1ccc(Br)cc1 : reported GI50 = ?
RESULT: 11.4 µM (inactive)

QUERY: Entry C=CCO/N=C/c1cc(/N=C(/S)c2ccoc2C)ccc1Cl : reported GI50 = ?
RESULT: 10 µM (inactive)

QUERY: Entry CC1CC(=O)C(CC(=O)O)C1C(C(=O)C(=O)Nc1c(C#N)cccc1[N+](=O)[O-])[N+](=O)[O-] (stereo unspecified) : reported GI50 = ?
RESULT: > 100 µM (inactive)

QUERY: Entry COC(=O)c1ccccc1CC(Cc1ccccc1)C(=O)OC (stereo unspecified) : reported GI50 = ?
RESULT: 46.6 µM (inactive)

QUERY: Entry CCOC(=O)C(C(=O)c1ccccc1C(=O)OC)=P(c1ccccc1)(c1ccccc1)c1ccccc1 : reported GI50 = ?
RESULT: > 10 µM (inactive)

QUERY: Entry Cc1cc2c(c(C(=O)O)c1C)-c1cccc(F)c1C2=O : reported GI50 = ?
RESULT: > 100 µM (inactive)

QUERY: Entry OC(COc1cccc2ccccc12)CN1CCOCC1 (stereo unspecified) : reported GI50 = ?
RESULT: > 100 µM (inactive)

QUERY: Entry CSc1ccc2c(c1)N(CCCN(C)C)c1ccccc1S2 : reported GI50 = ?
RESULT: 16.4 µM (inactive)

QUERY: Entry CCN(CC)C(=O)c1cccc2c(OC)ccc(OC)c12 : reported GI50 = ?
RESULT: > 100 µM (inactive)

QUERY: Entry O[C@H]1[C@H]2[C@H](O)CCCN2C[C@H]1O : reported GI50 = ?
RESULT: > 100 µM (inactive)

QUERY: Entry O=C(O)CCc1nc(-c2ccccc2)c(-c2ccccc2)o1 : reported GI50 = ?
RESULT: > 100 µM (inactive)

QUERY: Entry CC(=O)Nc1ccc2c(c1)[nH]c(=O)c1cc(Cl)ccc12 : reported GI50 = ?
RESULT: 17.1 µM (inactive)

QUERY: Entry NCCCN(CCCCN(CCCN)Cc1ccc2ccccc2c1)Cc1ccc2ccccc2c1 : reported GI50 = ?
RESULT: 1.85 µM (inactive)

QUERY: Entry COc1ccc2cc3n(c2c1)CCc1cc(OC)c(OC)cc1-3 : reported GI50 = ?
RESULT: > 100 µM (inactive)

QUERY: Entry O=C(n1c(=O)n(-c2ccc(Cl)cc2)c(=O)n1C(=O)C(Cl)(Cl)Cl)C(Cl)(Cl)Cl : reported GI50 = ?
RESULT: > 100 µM (inactive)

QUERY: Entry COC1(OC)c2no[n+]([O-])c2CCC1O (stereo unspecified) : reported GI50 = ?
RESULT: > 100 µM (inactive)

----------
Test system: HT-29
assay procedure: NCI tumour cell line growth inhibition, 48 h
The source made the active and inactive calls. Cut-off read from the data, not from the text of the source: active = GI50 up to about 1.1 µM and inactive = higher.
Parameter: GI50. Scope: all listed entries.

See these solved cases before continuing.
QUERY: I'm curious: which GI50 was measured for CCOC(=O)/C(C#N)=C\Sc1ccccc1 tested on HT-29?
RESULT: 26 µM (inactive)

QUERY: I'm curious: which GI50 was measured for OC(c1cc2ccc(C(F)(F)F)cc2c2cc(C(F)(F)F)ccc12)C1CCCCN1 (stereo not given) tested on HT-29?
RESULT: 2.07 µM (inactive)

QUERY: I'm curious: which GI50 was measured for O=S(=O)(O)Oc1cc2c(c(OS(=O)(=O)O)c1)C[C@H](OS(=O)(=O)O)[C@@H](c1ccc(OS(=O)(=O)O)c(OS(=O)(=O)O)c1)O2 tested on HT-29?
RESULT: > 100 µM (inactive)

New cases:
QUERY: I'm curious: which GI50 was measured for COc1ccc(/C=N/NS(=O)(=O)c2ccc(/C=C3\NC(=O)N(C)C3=O)cc2)cc1 tested on HT-29?
RESULT: > 100 µM (inactive)

QUERY: I'm curious: which GI50 was measured for Nc1ncnc2c1ncn2C1OC(CSC(F)(F)F)C(O)C1O (stereo not given) tested on HT-29?
RESULT: > 100 µM (inactive)
